Recorded Fold of Change KO/WT for the following molecules
# system: Oatp1b2 (Mus musculus)
# Sequence (Q9JJL3 1-689): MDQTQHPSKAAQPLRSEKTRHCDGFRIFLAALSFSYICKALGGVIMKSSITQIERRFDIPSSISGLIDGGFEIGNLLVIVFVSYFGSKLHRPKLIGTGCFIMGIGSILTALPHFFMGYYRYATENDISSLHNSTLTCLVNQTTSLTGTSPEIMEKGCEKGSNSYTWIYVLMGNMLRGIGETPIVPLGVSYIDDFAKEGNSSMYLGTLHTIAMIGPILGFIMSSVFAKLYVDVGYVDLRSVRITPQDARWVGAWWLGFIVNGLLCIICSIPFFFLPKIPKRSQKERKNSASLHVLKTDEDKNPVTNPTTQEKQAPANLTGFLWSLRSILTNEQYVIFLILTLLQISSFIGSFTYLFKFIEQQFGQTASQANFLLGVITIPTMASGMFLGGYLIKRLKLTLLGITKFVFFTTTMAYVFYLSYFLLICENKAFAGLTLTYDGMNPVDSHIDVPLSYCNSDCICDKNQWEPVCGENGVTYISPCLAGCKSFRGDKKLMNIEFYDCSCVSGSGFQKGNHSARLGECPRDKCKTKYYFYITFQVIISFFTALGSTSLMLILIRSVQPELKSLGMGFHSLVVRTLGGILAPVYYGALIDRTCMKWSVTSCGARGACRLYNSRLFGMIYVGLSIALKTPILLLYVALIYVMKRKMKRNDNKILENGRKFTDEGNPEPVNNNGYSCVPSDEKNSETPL
# experimental-protocol: Untargeted metabolomics of plasma from untreated wild-type and Oatp1b2(−/−) mice
# run-conditions: plasma of untreated Oatp1b2-deficient (KO) vs wild-type (WT) mice; semi-quantitative; positive = higher in KO; n = 6 per group
The answer should be a number; do not append a unit.

{"columns": ["molecule", "system", "Fold of Change KO/WT"],
 "data": [
  ["CCCCC/C=C\\C/C=C\\CCCCCCCCCC(=O)OC(CC(=O)[O-])C[N+](C)(C)C (stereo not drawn)", "Oatp1b2 (Mus musculus)", 1.75]
]}

Request: Give the reported Fold of Change KO/WT for CC(C)C(O)C(=O)O (stereo not drawn) [alpha-hydroxyisovalerate] (system: Oatp1b2 (Mus musculus)).
Result: 1.68

Request: Give the reported Fold of Change KO/WT for CCC(CO)C(=O)O (stereo not drawn) [3-hydroxy-2-ethylpropionate] (system: Oatp1b2 (Mus musculus)).
Result: 1.25

====

# system: Oatp1b2 (Mus musculus)
# experimental-protocol: Untargeted metabolomics of plasma from untreated wild-type and Oatp1b2(−/−) mice
# run-conditions: plasma of untreated wild-type mice; raw area counts rescaled to median = 1
Counter-ions that a name gives are not always drawn.
measurement-type: Mean value WT

Request: Given the compound `CCCCC/C=C\C/C=C\C/C=C\C/C=C\CCCC(=O)O[C@H](CO/C=C\CCCCCCCCCCCCCCCC)COP(=O)(O)OCCN` , what is its reported Mean value WT?
Result: .828

Request: Given the compound CC(C)CCC[C@@H](C)[C@H]1CC[C@H]2[C@@H]3CC=C4C[C@@H](OS(=O)(=O)O)CC[C@]4(C)[C@H]3CC[C@]12C [cholesterol sulfate] , what is its reported Mean value WT?
Result: .875

Request: Given the compound `CC/C=C\C/C=C\C/C=C\CCCCCCCC(=O)OC[C@@H](O)COP(=O)([O-])OCC[N+](C)(C)C` , what is its reported Mean value WT?
Result: .661

Request: Given the compound O=C(O)CC[C@H](NC(=O)Cc1ccccc1)C(=O)O [phenylacetylglutamate] , what is its reported Mean value WT?
Result: .850

====

Recorded Fold of Change KO/WT for the following compounds
# system: Oatp1b2 (Mus musculus)
# Sequence (Q9JJL3 1-689): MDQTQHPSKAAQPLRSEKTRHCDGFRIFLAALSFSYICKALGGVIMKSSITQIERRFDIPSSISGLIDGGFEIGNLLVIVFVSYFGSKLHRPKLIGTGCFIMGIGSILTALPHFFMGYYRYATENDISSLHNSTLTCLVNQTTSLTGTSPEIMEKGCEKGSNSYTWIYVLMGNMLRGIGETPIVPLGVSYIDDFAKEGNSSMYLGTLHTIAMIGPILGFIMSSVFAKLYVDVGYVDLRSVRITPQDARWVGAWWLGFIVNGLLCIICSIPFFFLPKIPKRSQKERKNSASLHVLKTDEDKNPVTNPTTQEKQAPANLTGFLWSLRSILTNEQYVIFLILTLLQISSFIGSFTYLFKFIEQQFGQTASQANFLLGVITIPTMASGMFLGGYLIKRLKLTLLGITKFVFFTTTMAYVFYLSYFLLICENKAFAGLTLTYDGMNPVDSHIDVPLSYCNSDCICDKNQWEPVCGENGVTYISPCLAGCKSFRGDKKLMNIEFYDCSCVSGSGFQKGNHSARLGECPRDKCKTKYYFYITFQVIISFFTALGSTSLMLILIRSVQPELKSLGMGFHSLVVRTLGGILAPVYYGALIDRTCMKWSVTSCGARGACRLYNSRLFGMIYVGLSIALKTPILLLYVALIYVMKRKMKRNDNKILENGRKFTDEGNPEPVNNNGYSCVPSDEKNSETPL
# experimental-protocol: Untargeted metabolomics of plasma from untreated wild-type and Oatp1b2(−/−) mice
# run-conditions: plasma of untreated Oatp1b2-deficient (KO) vs wild-type (WT) mice; semi-quantitative; positive = higher in KO; n = 6 per group
The answer should be a number; do not append a unit.

Field: example entries. Status: answers known.
{"columns": ["compound", "measurement-type", "endpoint-value"],
 "data": [
  ["C[C@H](CCC(=O)O[C@@H]1O[C@H](C(=O)O)[C@@H](O)[C@H](O)[C@H]1O)[C@H]1CC[C@H]2[C@@H]3[C@H](O)C[C@@H]4C[C@H](O)CC[C@]4(C)[C@H]3CC[C@]12C [CDCA-24G, chenodeoxycholate-24-glucuronide]", "Fold of Change KO/WT", 97.9],
  ["CCCCCCCCCCCCCCCCCC(=O)OC[C@@H](O)COP(=O)(O)OCC(O)CO (some centres unmarked) [1-stearoyl-GPG (18:0)]", "Fold of Change KO/WT", 4.16],
  ["CCCCCCCCCCCCCCCC(=O)OC[C@@H](O)COP(=O)(O)OCC(O)CO (some centres unmarked) [1-palmitoyl-GPG (16:0)]", "Fold of Change KO/WT", 5.40]
]}

Request: Give the reported Fold of Change KO/WT for CCC(C)C(O)C(=O)O (centres unmarked) [2-hydroxy-3-methylvalerate] (system: Oatp1b2 (Mus musculus)).
Result: 3.15

Request: Give the reported Fold of Change KO/WT for CC(C)CCC(=O)NCC(=O)O [isocaproylglycine] (system: Oatp1b2 (Mus musculus)).
Result: 1.57

Request: Give the reported Fold of Change KO/WT for Cc1cn([C@H]2C[C@H](O)[C@@H](CO)O2)c(=O)nc1N [5-methyl-2'-deoxycytidine] (system: Oatp1b2 (Mus musculus)).
Result: 1.83

Request: Give the reported Fold of Change KO/WT for OC[C@H]1O[C@@H](n2cnc3c(O)ncnc32)[C@H](O)[C@@H]1O [inosine] (system: Oatp1b2 (Mus musculus)).
Result: 2.07

Request: Give the reported Fold of Change KO/WT for C[C@H](CCC(=O)O)[C@H]1CC[C@H]2[C@@H]3CC[C@@H]4C[C@H](O)CC[C@]4(C)[C@H]3C[C@H](OS(=O)(=O)O)[C@]12C [deoxycholic acid 12-sulfate] (system: Oatp1b2 (Mus musculus)).
Result: 1.25

====

# system: Oatp1b2 (Mus musculus)
# experimental-protocol: Untargeted metabolomics of plasma from untreated wild-type and Oatp1b2(−/−) mice
# run-conditions: plasma of untreated Oatp1b2-deficient (KO) vs wild-type (WT) mice; semi-quantitative; positive = higher in KO; n = 6 per group
measurement-type: Fold of Change KO/WT
The answer should be a number; do not append a unit.

Field: example entries. Status: answers known.
{"columns": ["compound", "Fold of Change KO/WT"],
 "data": [
  ["CCCCC/C=C\\C/C=C\\CCCCCCCC(=O)OC[C@@H](O)COP(=O)(O)O", 2.36],
  ["CCCC(=O)NCC(=O)O", 1.72],
  ["C=CC1=C(C)/C(=C/C2=NC(=C\\c3[nH]c(/C=C4\\NC(=O)C(C)=C4C=C)c(C)c3CCC(=O)O)/C(CCC(=O)O)=C2C)NC1=O", 4.09]
]}

Request: Given the compound C[C@H](CCC(=O)O)[C@H]1CC[C@H]2[C@@H]3[C@@H](O)C[C@@H]4C[C@H](O)CC[C@]4(C)[C@H]3CC[C@]12C [ursodeoxycholate] , what is its reported Fold of Change KO/WT?
Result: 4.07

Request: Given the compound `CCCCCCCC/C=C\CCCCCCCC(=O)O[C@H](CO/C=C\CCCCCCCCCCCCCC)COP(=O)(O)OCCN` , what is its reported Fold of Change KO/WT?
Result: 1.32

Request: Given the compound CCCCCCCCCCCCCCCCC(N)=O [margaramide (17:0)] , what is its reported Fold of Change KO/WT?
Result: 1.45

Request: Given the compound `CCCCCCCCCCCCCCC(=O)O[C@H](CC(=O)[O-])C[N+](C)(C)C` , what is its reported Fold of Change KO/WT?
Result: 1.77

Request: Given the compound CCCCCCC=CCCCCCCCC(=O)OC(CC(=O)[O-])C[N+](C)(C)C (stereo not shown) , what is its reported Fold of Change KO/WT?
Result: 1.63

Request: Given the compound `CCCCC/C=C\C/C=C\C/C=C\C/C=C\CCCC(=O)OC[C@@H](O)COP(=O)(O)OCCN` , what is its reported Fold of Change KO/WT?
Result: 1.49

Request: Given the compound C[N+]1(C)CCCC[C@H]1C(=O)[O-] [homostachydrine] , what is its reported Fold of Change KO/WT?
Result: 1.19

Request: Given the compound O=C(O)[C@H]1OC(O)[C@H](O)[C@@H](O)[C@@H]1O (mixture of isomers) [glucuronate] , what is its reported Fold of Change KO/WT?
Result: 3.17

Request: Given the compound `CC/C=C\C/C=C\C/C=C\CCCCCCCC(=O)OC[C@@H](O)COP(=O)([O-])OCC[N+](C)(C)C` , what is its reported Fold of Change KO/WT?
Result: 2.13

Request: Given the compound `CC(=O)Nc1ccn([C@@H]2O[C@H](CO)[C@@H](O)[C@H]2O)c(=O)n1` , what is its reported Fold of Change KO/WT?
Result: 1.36

Request: Given the compound `CCCCCCCC/C=C\CCCCCCCC(=O)O[C@H](COC(=O)CCCCCCCCCCCCCCC)COP(=O)(O)OCCN` , what is its reported Fold of Change KO/WT?
Result: 1.46

Request: Given the compound O=C(O)CCCCCCCCCCCCCCC(=O)O [hexadecanedioate (C16-DC)] , what is its reported Fold of Change KO/WT?
Result: 2.10

Request: Given the compound CC(O)(CCO)CC(=O)O (stereo not shown) [mevalonate] , what is its reported Fold of Change KO/WT?
Result: 1.24

Reference for the values: paper PMC9502272
